experiment-notes: Apparent permeability across basolateral to apical side in MDCK cells
Assay type: ADME, cell-based, Canis lupus familiaris
applied-conditions: dog
measurement-type: Papp B→A (×10⁻⁶ cm/s)
Give bare numbers, in ×10⁻⁶ cm/s.

Fill in the blank: the reported Papp B→A of "CCC[C@H]1NC(=O)c2cccnc2OCCOCCN(C2CCCC2)CC2CCN(CC2)C1=O" is ____.
56

---

experiment-notes: Lipophilicity, logD of the compound in n-octanol/aqueous at pH 7.4 incubated overnight by UPLC analysis
Type: physicochemical
measurement-type: logD
Numbers only.

Guide cases for logD, answers given:
{"smiles-text": "C=CCOc1ccccc1CN(CC(=O)N1CCC(CC(=O)NC2CC2)CC1)C1CCCC1", "logD": 1.8}
{"smiles-text": "CCOc1ccccc1C(=O)N1CCN(Cc2ccccc2)C[C@@H]1C(=O)NC[C@@H]1CCCCO1", "logD": 3.2}
{"smiles-text": "CCC[C@@H](NC(=O)c1cccnc1OC)C(=O)N1CCC(CCN(CCOC)C2CCN(C)CC2)CC1", "logD": 0.8}
{"smiles-text": "C=CCOc1ccccc1CN(CC(=O)N1CCC(CC(=O)NC2CC2)CC1)C1CCN(C)CC1", "logD": 0.5}
{"smiles-text": "C=CCOc1ccccc1CN(CC(=O)N1CCC(CC(=O)NC2CC2)CC1)C(C)C", "logD": 1}

# batch: return logD for each of the 4 compounds below
1. CCOc1ccccc1C(=O)N1CCN(Cc2ccccc2)C[C@@H]1C(=O)NC[C@H]1CCCCO1
2. CCOc1ccccc1C(=O)N1CCN(C2CCCC2)C[C@@H]1C(=O)NC[C@@H]1CCCCO1
3. CCC[C@H]1NC(=O)c2cccnc2OCCOCCN(C2CCCC2)CC2CCN(CC2)C1=O
4. CCOc1ccccc1C(=O)N1CCN(C2CCCC2)C[C@@H]1C(=O)NC[C@H]1CCCCO1

1: 3.2; 2: 2.5; 3: 1.5; 4: 2.5

Fill in the blank: the reported logD of "C=CCOc1ccccc1CN(CC(=O)N1CCC(CC(=O)NC2CC2)CC1)Cc1ccccc1" is ____.
3.8

---

experiment-notes: Apparent permeability across apical to basolateral side in MDCK cells
Assay type: ADME, cell-based, Canis lupus familiaris
applied-conditions: dog
Task for the reader: assign each of the following compounds its reported Papp.

Guide cases for Papp, answers given:
{"smiles-text": "CCOc1ccccc1C(=O)N1CCN(C2CCCC2)C[C@@H]1C(=O)NC[C@@H]1CCCCO1", "test-result": "29 10^-6 cm/s"}
{"smiles-text": "CCC[C@@H](NC(=O)c1cccnc1OC)C(=O)N1CCC(CCN(CCOC)C2CCN(C)CC2)CC1", "test-result": "93 10^-6 cm/s"}
{"smiles-text": "C=CCOc1ccccc1CN(CC(=O)N1CCC(CC(=O)NC2CC2)CC1)C(C)C", "test-result": "2 10^-6 cm/s"}
{"smiles-text": "CCOc1ccccc1C(=O)N1CCN(Cc2ccccc2)C[C@@H]1C(=O)NC[C@@H]1CCCCO1", "test-result": "33 10^-6 cm/s"}

Next up:
Fill in the blank: the reported Papp of "C=CCOc1ccccc1CN(CC(=O)N1CCC(CC(=O)NC2CC2)CC1)C1CCN(C)CC1" is ____.
1 10^-6 cm/s

---

experiment-notes: Unbound fraction in mouse microsome incubated for 4 hrs by LC-MS/MS analysis
Type: ADME
applied-conditions: microsomes
measurement-type: fraction unbound at 4 h
One number for each entry.

Guide cases for fraction unbound at 4 h, answers given:
{"smiles-text": "CCOc1ccccc1C(=O)N1CCN(Cc2ccccc2)C[C@@H]1C(=O)NC[C@H]1CCCCO1", "test-result": 1}
{"smiles-text": "C=CCOc1ccccc1CN(CC(=O)N1CCC(CC(=O)NC2CC2)CC1)C1CCCC1", "test-result": 1}
{"smiles-text": "CCOc1ccccc1C(=O)N1CCN(C2CCCC2)C[C@@H]1C(=O)NC[C@H]1CCCCO1", "test-result": 0.68}
{"smiles-text": "CCC[C@@H](NC(=O)c1cccnc1OC)C(=O)N1CCC(CCN(CCOC)C2CCN(C)CC2)CC1", "test-result": 0.77}
{"smiles-text": "C=CCOc1ccccc1CN(CC(=O)N1CCC(CC(=O)NC2CC2)CC1)Cc1ccccc1", "test-result": 0.57}

# batch: return fraction unbound at 4 h for each of the 4 molecules below
1. CCOc1ccccc1C(=O)N1CCN(C2CCCC2)C[C@@H]1C(=O)NC[C@@H]1CCCCO1
2. C=CCOc1ccccc1CN(CC(=O)N1CCC(CC(=O)NC2CC2)CC1)C1CCN(C)CC1
3. CCOc1ccccc1C(=O)N1CCN(Cc2ccccc2)C[C@@H]1C(=O)NC[C@@H]1CCCCO1
4. C=CCOc1ccccc1CN(CC(=O)N1CCC(CC(=O)NC2CC2)CC1)C(C)C

[0.68, 0.76, 1, 1]
